tested on: narkotisierten Katze; assay: Blood-pressure-lowering and positive inotropic effect in the anaesthetised cat; format: in vivo, Katzen; details: anaesthetised cats, 0,3 mg/kg i.v., mean of 2 cats, dp/dt max from left ventricular pressure
Measured Zunahme von dp/dt in %, listed per entry for reference.

Compound | Zunahme von dp/dt in %
CCN1C(=O)C(C)(C)c2cc3[nH]c(-c4ocnc4C)nc3cc21 [D] | +50%
CCN1C(=O)C(C)(C)c2cc3[nH]c(-c4ccc(S(C)(=O)=O)cc4)nc3cc21 [C] | +91%
CCN1C(=O)C(C)(C)c2cc3[nH]c(-c4ccncc4)nc3cc21 [A] | +55%
CCN1C(=O)C(C)(C)c2cc3[nH]c(-c4ccco4)nc3cc21 [B] | +49%

Values were extracted from patent EP0268178A1.
